- Assay explanation: reversal of MRP1-mediated doxorubicin resistance, pilot screen, H69AR cells, doxorubicin co-treatment (AID 601)
- Measurement parameters: H69AR cells + 2 uM doxorubicin, CellTiter-Glo, 72 h; at 10 µM; hits give high values
Recorded differential viability (reversal) by entry
Measure: differential viability (reversal) (%)

# Molecule, Unit of measurement, Result
measured = [
    ("CN(C(=O)C1CCOC1)c1nnc(-c2cccnc2)s1 (stereo not drawn)", "%", 4.19),
    ("CCCS(=O)(=O)N1CCC(C(=O)NCCN2CCCC2)CC1", "%", 8.3),
    ("COc1ccc(C2C(C(=O)c3sc(C)nc3C)=C(O)C(=O)N2CCN(C)C)cc1 (stereo not drawn)", "%", 12.4),
    ("O=C(CP(=O)(c1ccccc1)c1ccccc1)N1CCCCC1", "%", 19),
    ("CCOC(=O)c1sc(NC(=O)CSc2nnnn2-c2ccccc2)c(C(=O)OCC)c1C", "%", 19.6),
    ("CCOc1ccccc1C(=O)NCCCn1ccnc1", "%", 4.38),
    ("CC(=O)c1ccc(-n2nnnc2SCC(=O)N2CCc3ccccc3C2)cc1", "%", -12.1),
    ("CC(C)C(c1nnnn1C1CCCC1)N1CCCc2ccccc21 (stereo not drawn)", "%", -6.77),
    ("Cc1cc(C)n(-c2ccc3cccc(NS(C)(=O)=O)c3n2)n1", "%", -22.8),
    ("Cc1ccc2nc(NC(=O)C3CCCN(S(=O)(=O)c4cccc5nonc45)C3)sc2c1 (stereo not drawn)", "%", -14.8),
    ("N#C/C(=C\\c1ccc(O)c(O)c1)C(=O)NCCCc1ccccc1", "%", -33.4),
    ("CCCCn1c(SCC(=O)NCc2ccccc2)nc2ccc(N3CCOCC3)cc2c1=O", "%", -5.76),
    ("C=C(C)COc1ccc(-c2nc(N)ncc2-c2ccc(OC)cc2)c(O)c1", "%", 1.44),
    ("COc1ccc(CCN2C(=O)CC(N3CCOCC3)C2=O)cc1 (stereo not drawn)", "%", 16.3),
    ("Cn1c(=O)c2c(nc(SCC(=O)N3CCCc4ccccc43)n2C)n(C)c1=O", "%", 7.81),
    ("COc1cccc(-c2nnc(NC(=O)Cc3cccs3)s2)c1", "%", -14.2),
    ("O=C(C1=C(O)C(=O)N(c2ncccn2)C1c1cccc(Cl)c1)c1ccco1 (stereo not drawn)", "%", -3.12),
    ("COC(=O)c1cc(OC)c(OC)cc1NC(=O)CC1CCCCC1", "%", 9.91),
    ("c1ccc(CN2CCN(c3ncnc4c3[nH]c3ccccc34)CC2)cc1", "%", -22.6),
    ("O=C(O)C1C2C=CC(C3CC23)C1C(=O)NCCc1ccccc1 (stereo not drawn)", "%", 6.28),
    ("CCc1nnc(NC(=O)CSc2nnc(-c3ccccc3OC)n2-c2ccccc2)s1", "%", -1.85),
    ("O=C(Cn1c(NCCO)nc2ccccc21)c1ccccc1", "%", 3.85),
    ("COc1ccc(CCN2CC(O)=C(c3nc4ccccc4c(=O)[nH]3)C2=N)cc1OC", "%", -4.8),
    ("O=C(Nc1ccc2c(c1)OCO2)c1ccc(Br)c(S(=O)(=O)N2CCCC2)c1", "%", 1.82),
    ("CCc1nn(CC(=O)N2CCN(Cc3ccc4c(c3)OCO4)CC2)c(=O)c2cc3occc3n12", "%", -2.36),
    ("CCOC(=O)CSc1nnc(CNC(=O)c2cccs2)n1-c1cc(OC)ccc1OC", "%", 11.1),
    ("CC(=O)Nc1ccc(NS(=O)(=O)c2ccc(Cl)c(C(=O)O)c2)cc1", "%", 9.96),
    ("Cc1c(C(=O)NCc2ccoc2)oc2ccc3c(c12)C(=O)CC(C)(C)O3", "%", -2.74),
    ("COc1ccccc1-c1nc2n(n1)C(c1ccc(Cl)cc1)C(C(N)=O)=C(C)N2 (stereo not drawn)", "%", -4.36),
    ("CCCNC(=O)NS(=O)(=O)c1ccc(Cl)cc1", "%", 10.4),
    ("COc1ccc(CNC(=O)C(c2ccco2)N(Cc2cccs2)C(=O)Cc2cccs2)cc1 (stereo not drawn)", "%", 8.17),
    ("Nc1nc(-c2ccc(Cl)cc2)cc(C(F)(F)F)n1", "%", 13.3),
    ("COc1ccc(CN(C(=O)c2ccccc2OC)C2CCS(=O)(=O)C2)cc1 (stereo not drawn)", "%", 7.03),
    ("CC1=C(C(=O)Nc2ccccc2C)C2(CCCC2)C(C(N)=O)C(=O)N1 (stereo not drawn)", "%", 1.6),
    ("COc1ccc(CCNC(=O)c2cc(C(C)C)on2)cc1OC", "%", 9.6),
    ("O=c1c2ccccc2c(C=Nc2ccc(Cl)cn2)c(O)n1-c1cc(Cl)ccc1N1CCOCC1", "%", 7.31),
    ("CCOC(=O)c1sc(NC(=O)CSc2n[nH]c(-c3ccccc3)n2)c(C#N)c1C", "%", 9.27),
    ("COc1ccc(CC(=O)Nc2cc(Cl)ccc2O)cc1", "%", 0.69),
    ("CCc1ccc2[nH]c(=O)c(C(c3nnnn3CC3CCCO3)N3CCN4CCCC4C3)cc2c1 (stereo not drawn)", "%", 14.1),
    ("CC(=O)OCC(=O)[C@@]1(O)CC[C@H]2[C@@H]3CCC4=CC(=O)C=C[C@]4(C)[C@H]3[C@@H](O)C[C@@]21C", "%", -7.15),
    ("O=C(COC(=O)c1cnccn1)c1ccc(OC(=O)c2ccccc2)cc1", "%", -2.16),
    ("CC(C)N=c1cc2n(-c3ccc(Cl)cc3)c3ccccc3nc-2cc1Nc1ccc(Cl)cc1", "%", -6.59),
    ("CN1CCc2c(sc3c2c(=O)n(-c2cccc(Cl)c2)c2nncn32)C1", "%", -13.3),
]

The measurements presented in this section are drawn from PubChem BioAssay.
